# STUDY TARGET: Glutamate receptor ionotropic, kainate 2 (Homo sapiens, UniProt Q13002)
# Sequence (Q13002 whole entry): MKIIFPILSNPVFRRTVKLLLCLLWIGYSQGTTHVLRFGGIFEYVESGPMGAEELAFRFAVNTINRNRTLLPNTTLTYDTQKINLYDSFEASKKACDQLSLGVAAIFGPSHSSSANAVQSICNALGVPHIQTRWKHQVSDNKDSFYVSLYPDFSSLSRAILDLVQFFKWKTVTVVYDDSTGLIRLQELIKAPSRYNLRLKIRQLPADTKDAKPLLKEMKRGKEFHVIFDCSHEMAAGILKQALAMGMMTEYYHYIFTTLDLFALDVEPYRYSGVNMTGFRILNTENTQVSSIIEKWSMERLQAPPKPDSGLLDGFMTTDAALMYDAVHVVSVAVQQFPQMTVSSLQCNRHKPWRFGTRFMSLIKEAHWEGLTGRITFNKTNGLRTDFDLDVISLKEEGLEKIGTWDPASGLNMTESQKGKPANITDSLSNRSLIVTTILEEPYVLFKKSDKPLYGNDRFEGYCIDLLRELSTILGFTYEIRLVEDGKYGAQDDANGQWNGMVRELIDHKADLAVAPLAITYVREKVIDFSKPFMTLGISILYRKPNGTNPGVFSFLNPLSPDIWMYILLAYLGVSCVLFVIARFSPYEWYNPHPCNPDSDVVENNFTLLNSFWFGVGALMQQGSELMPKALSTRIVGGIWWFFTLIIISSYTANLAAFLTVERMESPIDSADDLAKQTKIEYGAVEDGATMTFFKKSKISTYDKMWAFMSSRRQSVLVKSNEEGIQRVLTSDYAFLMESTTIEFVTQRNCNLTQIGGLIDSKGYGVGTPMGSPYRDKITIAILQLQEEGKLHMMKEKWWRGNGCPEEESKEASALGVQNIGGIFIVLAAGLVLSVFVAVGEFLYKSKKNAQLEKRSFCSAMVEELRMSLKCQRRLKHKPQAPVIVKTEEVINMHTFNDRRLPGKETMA
# EXPERIMENT DESCRIPTION: Displacement of [3H]kianic acid from recombinant GluK2 kainate receptor (unknown origin) expressed in HEK293 cell membranes measured after 1 hr
RECORDED ENDPOINT: Ki (nM)
Give the number; nM is assumed, so skip it.

Incoming: So what's the measured Ki for this one? CN[C@H]1[C@H]2O[C@@](C[C@H](N)C(=O)O)(C(=O)O)C[C@H]2OC[C@H]1O
Outgoing: 1.2
